Target: Bovine LOX (Bos taurus)
Sequence (P33072 170-418): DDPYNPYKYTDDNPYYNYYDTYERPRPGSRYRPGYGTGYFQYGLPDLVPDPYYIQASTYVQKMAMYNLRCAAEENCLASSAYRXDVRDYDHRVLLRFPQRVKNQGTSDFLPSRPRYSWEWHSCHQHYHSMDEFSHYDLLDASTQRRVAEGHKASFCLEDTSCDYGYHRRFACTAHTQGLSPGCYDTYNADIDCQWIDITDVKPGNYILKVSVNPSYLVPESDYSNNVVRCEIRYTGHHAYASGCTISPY
Assay: LOX inhibition, Amplex Red oxidation assay
Assay type: biochemical
Details: incubation with enzyme 30 min at 37° C; read-out: Bovine LOX Activity IC50
Where a name gives a salt, the structure may show the parent alone.
Classify: yes when IC50 is strictly less than 4 µM; no when IC50 is not.

Some entries whose results are on file:
* COc1cccc(S(=O)(=O)C(F)(F)/C(F)=C/CN)c1 | no
* N#CCCN [BAPN, β-aminopropionitrile, reference compound] | yes
* Cc1ccccc1S(=O)(=O)C(F)(F)/C(F)=C/CN | yes
* NC/C=C(\F)C(F)(F)S(=O)(=O)c1cccs1 | no
* NC/C=C(\F)C(F)(F)S(=O)(=O)c1cccc2cccnc12 | no
* Cc1occc1S(=O)(=O)C(F)(F)/C(F)=C/CN | no
* CS(=O)(=O)c1cccc(CS(=O)(=O)C(F)(F)/C(F)=C/CN)c1 | yes
* CS(=O)(=O)c1ccc(COc2ccccc2S(=O)(=O)C(F)(F)/C(F)=C/CN)cc1 | yes
* NC/C=C(/F)C(F)(F)S(=O)(=O)c1ccccc1 [Compound 1(E)] | no
* CNc1ccccc1S(=O)(=O)C(F)(F)/C(F)=C/CN | no

Record `NC/C=C(\F)C(F)(F)S(=O)(=O)C1CCCC1` : is its IC50 strictly below 4 µM?
yes

Record `[2H]c1c([2H])c([2H])c(S(=O)(=O)C(F)(F)/C(F)=C/CN)c([2H])c1[2H]` : is its IC50 strictly below 4 µM?
yes

Record `Cc1ccc(S(=O)(=O)C(F)(F)/C(F)=C/CN)cc1` : is its IC50 strictly below 4 µM?
yes

Record NC/C=C(\F)C(F)(F)[S+]([O-])c1ccccc1 (centres unmarked) : is its IC50 strictly below 4 µM?
no

Record `NC/C=C(\F)C(F)(F)S(=O)(=O)c1ccccc1O` : is its IC50 strictly below 4 µM?
no

Record `CS(=O)(=O)c1cccc(S(=O)(=O)C(F)(F)/C(F)=C/CN)c1` : is its IC50 strictly below 4 µM?
no

Record NC/C=C(\F)C(F)(F)S(=O)(=O)c1ccccc1N1CCS(=O)(=O)CC1 [Compound 7, hydrochloride] : is its IC50 strictly below 4 µM?
no

Record `NC/C=C(\F)C(F)(F)S(=O)(=O)Cc1ccccc1` : is its IC50 strictly below 4 µM?
yes

Record `CS(=O)(=O)c1cccc(Oc2cccc(S(=O)(=O)C(F)(F)/C(F)=C/CN)c2)c1` : is its IC50 strictly below 4 µM?
no

* * *

Target: recombinant human MAO-B (Homo sapiens, UniProt P27338)
Sequence (P27338 whole entry): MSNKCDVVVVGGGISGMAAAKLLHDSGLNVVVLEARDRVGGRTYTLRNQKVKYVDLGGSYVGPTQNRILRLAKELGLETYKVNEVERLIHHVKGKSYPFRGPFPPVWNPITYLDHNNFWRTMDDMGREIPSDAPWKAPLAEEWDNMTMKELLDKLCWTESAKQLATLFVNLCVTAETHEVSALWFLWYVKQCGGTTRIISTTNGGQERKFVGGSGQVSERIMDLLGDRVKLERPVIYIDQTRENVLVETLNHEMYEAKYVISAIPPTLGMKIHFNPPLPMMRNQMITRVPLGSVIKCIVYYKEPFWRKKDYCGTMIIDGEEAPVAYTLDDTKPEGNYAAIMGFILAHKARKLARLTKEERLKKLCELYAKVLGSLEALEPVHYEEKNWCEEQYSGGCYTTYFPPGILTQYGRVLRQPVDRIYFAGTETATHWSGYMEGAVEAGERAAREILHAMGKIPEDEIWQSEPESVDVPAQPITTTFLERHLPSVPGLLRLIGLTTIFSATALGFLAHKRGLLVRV
Assay: MAO-B inhibition
Conditions: benzylamine 100 μM
measure: IC50

Known IC50 results, listed for orientation:
* NC/C=C(\F)C(F)(F)S(=O)(=O)Cc1ccccc1 | > 30 µM
* CNc1ccccc1S(=O)(=O)C(F)(F)/C(F)=C/CN | ≥ 30 µM
* Cc1ccccc1S(=O)(=O)C(F)(F)/C(F)=C/CN | > 30 µM
* N#CCCN [BAPN, β-aminopropionitrile, reference compound] | > 30 µM
* CS(=O)(=O)c1ccc(COc2ccccc2S(=O)(=O)C(F)(F)/C(F)=C/CN)cc1 | > 30 µM

We next turn to a different compound, shown below.
// returns reported IC50 for input `Cc1ccc(S(=O)(=O)C(F)(F)/C(F)=C/CN)cc1`
> 30 µM

* * *

Molecular target: Human recombinant LOXL1 (Homo sapiens)
Sequence (Q08397 96-574): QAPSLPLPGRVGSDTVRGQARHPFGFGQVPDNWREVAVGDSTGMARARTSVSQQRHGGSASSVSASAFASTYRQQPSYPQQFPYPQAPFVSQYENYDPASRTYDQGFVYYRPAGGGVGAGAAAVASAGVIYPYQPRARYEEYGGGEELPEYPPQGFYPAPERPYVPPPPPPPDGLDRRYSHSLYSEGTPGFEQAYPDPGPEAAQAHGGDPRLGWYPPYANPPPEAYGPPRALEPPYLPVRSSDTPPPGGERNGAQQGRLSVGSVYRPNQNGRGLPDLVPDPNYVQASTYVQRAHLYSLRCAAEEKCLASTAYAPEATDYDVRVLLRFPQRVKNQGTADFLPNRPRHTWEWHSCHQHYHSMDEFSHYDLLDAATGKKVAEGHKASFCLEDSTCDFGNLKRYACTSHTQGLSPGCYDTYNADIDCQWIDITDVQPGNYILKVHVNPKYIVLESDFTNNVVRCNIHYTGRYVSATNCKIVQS
Assay: LOXL1 inhibition, Amplex Red oxidation assay
Type: biochemical
measure: IC50 (µM)
Unit µM implied. Number only.

// returns reported IC50 for input `NC/C=C(\F)C(F)(F)S(=O)(=O)c1ccccc1`
3.4

* * *

Molecular target: Human recombinant LOXL4 (Homo sapiens, UniProt Q96JB6)
Sequence (Q96JB6 25-756): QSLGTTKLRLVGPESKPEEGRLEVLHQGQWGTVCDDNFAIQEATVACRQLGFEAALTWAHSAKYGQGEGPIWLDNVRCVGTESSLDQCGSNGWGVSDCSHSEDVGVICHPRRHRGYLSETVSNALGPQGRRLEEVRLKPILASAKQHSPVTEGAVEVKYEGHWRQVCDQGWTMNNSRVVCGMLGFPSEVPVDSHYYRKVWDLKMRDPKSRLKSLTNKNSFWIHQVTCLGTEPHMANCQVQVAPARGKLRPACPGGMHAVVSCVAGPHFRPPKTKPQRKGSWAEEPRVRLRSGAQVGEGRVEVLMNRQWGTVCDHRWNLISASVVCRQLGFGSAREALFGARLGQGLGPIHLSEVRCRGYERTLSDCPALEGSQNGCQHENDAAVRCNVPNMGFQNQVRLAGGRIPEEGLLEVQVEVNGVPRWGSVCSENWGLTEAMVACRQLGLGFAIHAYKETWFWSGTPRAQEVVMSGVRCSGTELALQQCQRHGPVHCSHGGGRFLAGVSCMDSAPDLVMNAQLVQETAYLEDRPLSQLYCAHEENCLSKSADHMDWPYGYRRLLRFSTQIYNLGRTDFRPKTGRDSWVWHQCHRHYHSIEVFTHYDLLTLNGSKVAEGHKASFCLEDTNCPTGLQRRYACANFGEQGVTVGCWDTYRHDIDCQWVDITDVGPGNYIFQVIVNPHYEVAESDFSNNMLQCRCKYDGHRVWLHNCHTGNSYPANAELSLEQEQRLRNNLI
Assay: LOXL4 inhibition, Amplex Red oxidation assay
Format: biochemical
Settings: incubation with enzyme 30 min at 37° C; read-out: Human recombinant LOXL4 Activity IC50
measure: IC50 (nM)
Unit nM implied. Number only.

Known IC50 results, listed for orientation:
- COc1cccc(S(=O)(=O)C(F)(F)/C(F)=C/CN)c1 [Compound 12]: 300
- NC/C=C(\F)C(F)(F)S(=O)(=O)c1cccc2cccnc12 [Compound 2]: 600
- CNc1ccccc1S(=O)(=O)C(F)(F)/C(F)=C/CN [Compound 4]: 700
- CS(=O)(=O)c1cccc(CS(=O)(=O)C(F)(F)/C(F)=C/CN)c1 [Compound 17]: 200
- NC/C=C(\F)C(F)(F)[S+]([O-])c1ccccc1 (centres unmarked) [Compound 9]: 1100
- NC/C=C(\F)C(F)(F)S(=O)(=O)c1cccs1 [Compound 14]: 200

// returns reported IC50 for input Cc1ccc(S(=O)(=O)C(F)(F)/C(F)=C/CN)cc1 [Compound 6]
300

// returns reported IC50 for input N#CCCN [BAPN, β-aminopropionitrile, reference compound]
300

// returns reported IC50 for input CS(=O)(=O)c1ccc(COc2ccccc2S(=O)(=O)C(F)(F)/C(F)=C/CN)cc1 [Compound 10]
100

// returns reported IC50 for input NC/C=C(\F)C(F)(F)S(=O)(=O)C1CCCC1 [Compound 19]
500

// returns reported IC50 for input NC/C=C(\F)C(F)(F)S(=O)(=O)Cc1ccccc1 [Compound 8]
100

* * *

Molecular target: Human recombinant LOXL2 (Homo sapiens)
Sequence (Q9Y4K0 26-774): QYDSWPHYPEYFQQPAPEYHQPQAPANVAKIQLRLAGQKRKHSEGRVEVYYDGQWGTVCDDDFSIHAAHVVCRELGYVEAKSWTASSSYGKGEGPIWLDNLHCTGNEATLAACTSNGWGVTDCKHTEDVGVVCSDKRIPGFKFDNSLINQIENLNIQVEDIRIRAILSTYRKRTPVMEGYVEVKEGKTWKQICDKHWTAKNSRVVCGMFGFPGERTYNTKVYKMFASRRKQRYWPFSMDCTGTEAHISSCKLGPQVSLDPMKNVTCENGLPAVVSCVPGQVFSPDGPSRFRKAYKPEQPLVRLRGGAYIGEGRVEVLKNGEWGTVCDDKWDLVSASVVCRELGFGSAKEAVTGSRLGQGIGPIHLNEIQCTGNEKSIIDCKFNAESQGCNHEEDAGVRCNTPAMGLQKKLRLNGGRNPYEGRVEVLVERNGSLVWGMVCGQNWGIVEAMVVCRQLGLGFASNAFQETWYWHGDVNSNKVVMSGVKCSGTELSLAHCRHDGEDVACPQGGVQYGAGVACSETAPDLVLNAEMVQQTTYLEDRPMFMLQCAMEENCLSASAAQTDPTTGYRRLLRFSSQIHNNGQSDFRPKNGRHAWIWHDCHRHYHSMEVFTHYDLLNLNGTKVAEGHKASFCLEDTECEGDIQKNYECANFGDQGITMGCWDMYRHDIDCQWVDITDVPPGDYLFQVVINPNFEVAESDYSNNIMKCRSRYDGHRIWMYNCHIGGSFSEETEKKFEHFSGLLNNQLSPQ
Assay: LOXL2 inhibition, Amplex Red oxidation assay
Format: biochemical
measure: IC50 (nM)
Unit nM implied. Number only.

// returns reported IC50 for input `NC/C=C(\F)C(F)(F)S(=O)(=O)c1ccccc1`
400

* * *

log10(IC50) listing for selected compounds.
Molecular target: Human recombinant LOXL3 (Homo sapiens, UniProt P58215)
Sequence (P58215 26-753): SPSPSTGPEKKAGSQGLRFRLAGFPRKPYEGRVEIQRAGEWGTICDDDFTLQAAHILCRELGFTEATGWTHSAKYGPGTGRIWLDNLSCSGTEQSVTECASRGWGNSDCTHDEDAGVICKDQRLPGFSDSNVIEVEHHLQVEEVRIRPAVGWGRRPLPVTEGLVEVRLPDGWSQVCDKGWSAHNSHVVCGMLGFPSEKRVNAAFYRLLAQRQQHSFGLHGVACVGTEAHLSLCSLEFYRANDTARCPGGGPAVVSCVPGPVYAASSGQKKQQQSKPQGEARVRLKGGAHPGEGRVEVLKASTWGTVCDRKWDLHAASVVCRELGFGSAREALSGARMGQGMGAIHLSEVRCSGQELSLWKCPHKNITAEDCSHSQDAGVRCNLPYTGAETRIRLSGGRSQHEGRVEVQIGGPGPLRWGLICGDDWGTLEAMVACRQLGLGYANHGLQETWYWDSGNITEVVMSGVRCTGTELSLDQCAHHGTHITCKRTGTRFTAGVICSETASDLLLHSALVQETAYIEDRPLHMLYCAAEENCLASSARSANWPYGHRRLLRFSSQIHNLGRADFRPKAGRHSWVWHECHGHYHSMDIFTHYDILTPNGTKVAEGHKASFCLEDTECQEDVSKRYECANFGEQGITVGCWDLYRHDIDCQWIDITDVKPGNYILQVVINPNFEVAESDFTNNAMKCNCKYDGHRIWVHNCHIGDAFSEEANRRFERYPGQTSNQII
Assay: LOXL3 inhibition, Amplex Red oxidation assay
Format: biochemical
Details: incubation with enzyme 30 min at 37° C; read-out: Human recombinant LOXL3 Activity IC50
Plainly stated, the numbers are log10 of IC50 given in µM.

// returns reported log10(IC50) for input NC/C=C(\F)C(F)(F)[S+]([O-])c1ccccc1 (centres unmarked)
0.72

* * *

pIC50 listing for selected molecules.
Target: recombinant human MAO-A (Homo sapiens)
Sequence (P21397 whole entry): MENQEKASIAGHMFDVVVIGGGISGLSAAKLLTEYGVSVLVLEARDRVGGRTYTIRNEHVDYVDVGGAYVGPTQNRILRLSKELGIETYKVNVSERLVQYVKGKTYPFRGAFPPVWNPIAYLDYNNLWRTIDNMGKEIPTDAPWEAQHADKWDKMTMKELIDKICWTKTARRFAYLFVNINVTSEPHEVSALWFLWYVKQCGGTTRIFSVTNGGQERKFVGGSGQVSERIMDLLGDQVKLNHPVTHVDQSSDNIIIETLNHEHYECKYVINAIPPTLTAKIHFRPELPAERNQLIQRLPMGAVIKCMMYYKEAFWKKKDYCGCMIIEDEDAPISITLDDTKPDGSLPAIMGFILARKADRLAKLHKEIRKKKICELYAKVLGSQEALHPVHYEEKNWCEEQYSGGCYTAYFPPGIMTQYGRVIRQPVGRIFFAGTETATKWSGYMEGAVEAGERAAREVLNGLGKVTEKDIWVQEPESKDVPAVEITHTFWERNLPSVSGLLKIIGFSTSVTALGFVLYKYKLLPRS
Test: MAO-A inhibition
Settings: 2 hours incubation, tyramine 100 μM
Note: pIC50 values are expressed as the negative base-10 logarithm of concentration in M.

• CS(=O)(=O)c1ccc(COc2ccccc2S(=O)(=O)C(F)(F)/C(F)=C/CN)cc1 = 5.33
• Cc1ccccc1S(=O)(=O)C(F)(F)/C(F)=C/CN = 4.69

We next turn to a different molecule, shown below.
// returns reported pIC50 for input `CNc1ccccc1S(=O)(=O)C(F)(F)/C(F)=C/CN`
4.57

* * *

IC50 listing for selected compounds.
Target: Human recombinant LOXL1 (Homo sapiens)
Assay: LOXL1 inhibition, Amplex Red oxidation assay
Format: biochemical
Settings: incubation with enzyme 30 min at 37° C; read-out: Human recombinant LOXL1 Activity IC50
Unit µM implied. Number only.

Known IC50 results, listed for orientation:
- COc1cccc(S(=O)(=O)C(F)(F)/C(F)=C/CN)c1: 7.4
- NC/C=C(\F)C(F)(F)S(=O)(=O)Cc1ccccc1: 3.1

// returns reported IC50 for input `CNc1ccccc1S(=O)(=O)C(F)(F)/C(F)=C/CN`
4.8

* * *

Biological target: Human recombinant LOXL3 (Homo sapiens)
Assay: LOXL3 inhibition, Amplex Red oxidation assay
Format: biochemical
measure: pIC50
Note: pIC50 values are expressed as the negative base-10 logarithm of concentration in M.

// returns reported pIC50 for input NC/C=C(\F)C(F)(F)S(=O)(=O)c1ccccc1 [Compound 1]
5.82

* * *

IC50 listing for selected molecules.
Target: Human recombinant SSAO/VAP-1 (Homo sapiens, UniProt Q16853)
Construct: residues 34-763 of human SSAO/VAP-1; TEV cleavage site (N)
Sequence (Q16853 34-763): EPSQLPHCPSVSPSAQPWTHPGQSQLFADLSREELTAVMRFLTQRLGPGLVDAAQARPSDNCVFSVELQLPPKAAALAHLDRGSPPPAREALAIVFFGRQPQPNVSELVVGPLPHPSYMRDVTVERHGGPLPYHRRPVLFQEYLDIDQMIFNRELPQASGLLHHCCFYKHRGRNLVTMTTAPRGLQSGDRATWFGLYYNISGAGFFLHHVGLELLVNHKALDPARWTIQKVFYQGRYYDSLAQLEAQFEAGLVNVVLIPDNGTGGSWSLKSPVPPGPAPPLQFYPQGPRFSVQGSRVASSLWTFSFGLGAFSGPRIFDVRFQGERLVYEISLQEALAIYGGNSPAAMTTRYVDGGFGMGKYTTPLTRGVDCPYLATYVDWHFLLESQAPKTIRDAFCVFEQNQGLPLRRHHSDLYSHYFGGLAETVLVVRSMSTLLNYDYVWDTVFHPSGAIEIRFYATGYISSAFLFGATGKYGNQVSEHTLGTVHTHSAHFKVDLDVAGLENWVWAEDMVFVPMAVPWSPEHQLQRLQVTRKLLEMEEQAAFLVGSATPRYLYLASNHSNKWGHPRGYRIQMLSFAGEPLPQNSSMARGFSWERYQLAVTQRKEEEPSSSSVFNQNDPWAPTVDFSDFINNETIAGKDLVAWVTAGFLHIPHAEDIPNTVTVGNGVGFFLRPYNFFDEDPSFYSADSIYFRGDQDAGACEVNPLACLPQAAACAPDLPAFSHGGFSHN
Experiment: SSAO/VAP-1 inhibition
Conditions: 30 min incubation at 37° C, benzylamine 600 μM

• Cc1ccc(S(=O)(=O)C(F)(F)/C(F)=C/CN)cc1 = > 30 µM
• NC/C=C(\F)C(F)(F)S(=O)(=O)Cc1ccccc1 = > 30 µM
• Cc1ccccc1S(=O)(=O)C(F)(F)/C(F)=C/CN = > 30 µM
• N#CCCN [BAPN, β-aminopropionitrile, reference compound] = > 30 µM
• CNc1ccccc1S(=O)(=O)C(F)(F)/C(F)=C/CN = 18 µM
• CS(=O)(=O)c1ccc(COc2ccccc2S(=O)(=O)C(F)(F)/C(F)=C/CN)cc1 = 14.7 µM

We next turn to a different molecule, shown below.
// returns reported IC50 for input `NC/C=C(\F)C(F)(F)S(=O)(=O)c1cccs1`
26.6 µM

These data points were gathered from patent US20220251036A1.
